IC50 for MAPK1(ERK2) enzyme (Homo sapiens) - collated from the literature.

Below are worked cases with known answers.
[[record]]
molecule = "CCNC(=O)Nc1ccc2ncc(-c3cnn(C)c3)nc2n1"
endpointlabel = "IC50"
observedvalue = "107 nM"

[[record]]
molecule = "CCc1cnc(Nc2ccnn2C)cc1-c1cc2n(c1)C[C@H](OC)Cn1c-2nnc1C1(C(F)(F)F)CCC1"
endpointlabel = "IC50"
observedvalue = "≤ 5 nM"

[[record]]
molecule = "Cc1cnc(NC2CCc3ncnn3C2)nc1-c1cc2n(c1)C[C@H](C)n1c-2nnc1C(F)(F)c1ccccc1F (stereo partly shown)"
endpointlabel = "IC50"
observedvalue = "5 to 10 nM"


Ask: Report IC50 for COc1cccc(C(=O)NCc2ccc(S(=O)(=O)N3CCC(Nc4ccccc4[N+](=O)[O-])CC3)s2)c1 tested on MAPK1(ERK2) enzyme (Homo sapiens).
Reply: > 30000 nM

* * *

pIC50 for MAPK1(ERK2) enzyme (Homo sapiens) - collated from the literature.
Entry type: numeric. Quantity: pIC50, the -log10 of concentration in molar units.

[[record]]
givensmiles = "Nc1ncc(C2CCOCC2)nc1-c1ccc(C(=O)NC[C@@H](O)c2ccccc2)c(F)c1"
observedvalue = 7.47

[[record]]
givensmiles = "C=CCNC(=O)Nc1ccc2ncc(-c3ccc(O)cc3)nc2n1"
observedvalue = 7.12

[[record]]
givensmiles = "Nc1ncc(C2CCOCC2)cc1-c1ccc(C(=O)NCC2CC2)cc1"
observedvalue = 6.25


We now examine a further compound.
Ask: Report pIC50 for Cc1cnc(Nc2ccnn2C)nc1-c1cn2c(n1)C(=O)N(Cc1ccc(F)c(F)c1)CC2 tested on MAPK1(ERK2) enzyme (Homo sapiens).
Reply: 9.10

* * *

pIC50: −log10 of the molar value.
pIC50 for MAPK1(ERK2) enzyme (Homo sapiens, UniProt P28482) - collated from the literature.

Below are worked cases with known answers.
[[record]]
compound = "CC(=O)N1CCN([C@H]2C[C@H](n3cc(-c4cc(OC[C@@H]5CCCO5)ccc4F)c4c(N)ncnc43)C2)CC1"
observedvalue = "< 5.00"

[[record]]
compound = "COc1cnc(Nc2ccnn2C)cc1-c1cc2n(c1)CC(F)(F)Cn1c-2nnc1C1(C(F)(F)F)CCC1"
observedvalue = "8.00 to 8.30"

[[record]]
compound = "Cc1c(-c2ccnc(Nc3ccnn3C)n2)cn2c1-c1nnc(COc3ccccc3F)n1CCC2"
observedvalue = "≥ 8.30"

[[record]]
compound = "Cn1nccc1Nc1cc(-c2cc3n(c2)CCCn2c-3nnc2C2(C(C)(F)F)CCC2)c(Cl)cn1"
observedvalue = "≥ 8.30"


Ask: Report pIC50 for CC1(C)c2sc(-c3ccnc(NC4CCOCC4)n3)nc2C(=O)N1Cc1cccc(F)c1 tested on MAPK1(ERK2) enzyme (Homo sapiens, UniProt P28482).
Reply: 9.60

Ask: Report pIC50 for Cc1cnc(Nc2ccnn2C)nc1-c1cc2n(c1)C[C@H](C)n1c-2nnc1C(F)(F)c1cccc(F)c1 tested on MAPK1(ERK2) enzyme (Homo sapiens, UniProt P28482).
Reply: ≥ 8.30

Ask: Report pIC50 for COCC1Cn2cc(-c3cc(Nc4ccnn4C)ncc3Cl)cc2-c2nnc(C3(C(F)(F)F)CCC3)n2C1 (stereo not drawn) tested on MAPK1(ERK2) enzyme (Homo sapiens, UniProt P28482).
Reply: 8.00 to 8.30

Ask: Report pIC50 for Cn1nccc1Nc1cc(-c2cc3n(c2)CCCn2c(COCC(F)(F)F)nnc2-3)c(Cl)cn1 tested on MAPK1(ERK2) enzyme (Homo sapiens, UniProt P28482).
Reply: ≥ 8.30

Ask: Report pIC50 for Cn1nccc1Nc1nccc(-c2cc3n(c2)CCCn2c(Cc4ccccc4Cl)nnc2-3)n1 tested on MAPK1(ERK2) enzyme (Homo sapiens, UniProt P28482).
Reply: ≥ 8.30
